- Test system: Enterococcus faecium
- protocol details: Antibacterial activity against drug-resistant Enterococcus faecium
- Type: functional, organism-based
The source made the active and inactive calls. The calls are words filed in the database; no cut-off is given here.

>  <structure smiles string>
C=C(C)[C@@H]1/C=C/[C@]23O[C@H]2[C@H](C[C@@]2(C)O[C@@H]2C2=CC(C=O)=C(C1)O2)OC3=O

>  <Activity>
inactive

$$$$
>  <structure smiles string>
C=C(C)[C@H]1CC2=C(C=O)C=C(O2)[C@H]2O[C@]2(C)C[C@H]2C=C(C(=O)O2)[C@@H](OC(C)=O)C1

>  <Activity>
inactive

$$$$
>  <structure smiles string>
C=C(C)[C@@H]1CC(=O)[C@H]2[C@H](C1)[C@@H]1C(=O)O[C@@H]3C[C@]4(C)O[C@H]2C(=O)[C@@H]4[C@H]13

>  <Activity>
inactive

$$$$

----------
For each of the compounds below, state its IC50.
- System: Leishmania donovani
- protocol details: Antileishmanial activity against Leishmania donovani MHOM/SD/75/1246/130 axenic amastigotes infected in mouse J774A.1 cells after 72 hrs by Draq5 staining based assay
- Assay type: functional, organism-based
- condition: MHOM/SD/75/1246/130, J774.A1, 72 h
Give the value in µM but do not write µM after it.

Asked: What value of IC50 has been recorded for this entry: `C=C(C)[C@H]1CC2=C(C=O)C=C(O2)[C@H]2O[C@]2(C)C[C@@H]2OC(=O)/C(=C\[C@H]1OC(C)=O)[C@H]2OC(C)=O`
Given back: 8.5

Asked: For `C=C(C)[C@@H]1CCC2=C[C@H](C[C@@]3(C)O[C@@H]3C3=CC(C=O)=C(C1)O3)OC2=O` , what is its reported IC50?
Given back: 1.9

Asked: What value of measured IC50 is listed for `C=C(C)[C@H]1CC2=C(C=O)C=C(O2)[C@H]2O[C@]2(C)C[C@H]2C=C(C(=O)O2)[C@@H](OC(C)=O)C1` ?
Given back: 8.8

Asked: Query: IC50; subject: `C=C(C)[C@@H]1CC(=O)[C@H]2[C@H](C1)[C@@H]1C(=O)O[C@@H]3C[C@]4(C)O[C@H]2C(=O)[C@@H]4[C@H]13`
Given back: 4.4

Asked: So what's the measured IC50 for this one? `C=C(C)[C@@H]1/C=C/[C@]23O[C@H]2[C@H](C[C@](C)(O)[C@@H](OC(C)=O)C2=CC(C=O)=C(C1)O2)OC3=O`
Given back: 12

Asked: Please give the measured IC50 for this compound: `CCCCCCCCCCCCCCCCOP(=O)([O-])OCC[N+](C)(C)C`
Given back: 6.2

Asked: Entry under review: `C=C(C)[C@@H]1C/C=C2\C(=O)O[C@@H](C[C@@]3(C)O[C@@H]3C3=CC(C=O)=C(C1)O3)[C@@H]2OC(C)=O` . Reported IC50?
Given back: 8.8
